Field: TGI. Provide a value for each of the compounds that follow.
- System: CCRF-CEM leukemia
- TEST NAME: NCI tumour cell line growth inhibition, 48 h

The measured TGI associated with COC1=CC2(C=CC1=O)c1cc(OC)c(OC)cc1CCN2C(=O)c1ccccc1 (stereo unspecified) reads > 100 µM

The measured TGI associated with COc1ccc(-c2nnc(COc3ccc(NC(=O)Nc4ccc(Cl)c(C(F)(F)F)c4)cc3F)o2)cc1 reads 40 µM

The measured TGI associated with NC(=S)Nc1ccc(S(=O)(=O)Nc2ccc(S(N)(=O)=O)cc2)cc1 reads > 100 µM

The measured TGI associated with O=C1C=CC=C/C1=C1\N=C(c2ccccc2OCC(=O)c2ccc(Br)cc2)SS1 reads > 100 µM

The measured TGI associated with CC1(C)N=C(N)N=C(N)N1c1ccc(OCc2ccc(S(=O)(=O)F)c(Cl)c2)c(Cl)c1 reads > 100 µM

The measured TGI associated with NC(CCC(=O)O)C(=O)N1CCN(c2nc(N3CCCC3)c3nc(Cl)c(NCc4ccccc4)nc3n2)CC1 (stereo unspecified) reads 26.2 µM

The measured TGI associated with CC(C)=CC(=O)C[C@H]1C(=O)O[C@@H]2C[C@H]3C(C)=CC(=O)[C@@H](O)[C@]3(C)[C@H]3[C@@]4(O)OC[C@]32[C@@H]1[C@@H](C)[C@H]4O reads 0.0918 µM

The measured TGI associated with O=C1/C(=C/c2ccc(O)cc2)CSc2ccc(Cl)cc21 reads > 100 µM

The measured TGI associated with COc1cc(OC)c2c(=O)c(OC)c(-c3ccc4c(c3)OCO4)oc2c1 reads > 100 µM

The measured TGI associated with COc1cc2c(c(OC)c1)C1(CC(CC#N)C2)SCCS1 (stereo unspecified) reads > 100 µM

The measured TGI associated with O=C(/C=C\n1cnc(-c2cc(C(F)(F)F)cc(C(F)(F)F)c2)n1)NNc1cnccn1 reads > 100 µM

The measured TGI associated with C/C=C(\C)CC/C=C/CO[Si](C)(C)C(C)(C)C reads 49.6 µM

The measured TGI associated with c1cc2c(ncc3cscc32)s1 reads > 100 µM

The measured TGI associated with CC1ON2CCCC2[C@H]1C(=O)N1C2CC3CCC2(CS1(=O)=O)C3(C)C (stereo partly specified) reads > 100 µM

The measured TGI associated with Clc1ccc(-c2c(C3=NCCCN3)nnn2-c2ccc(Cl)cc2)cc1 reads > 83.3 µM

The measured TGI associated with COc1cc(OC)cc(-c2nc3cc(F)ccc3s2)c1 reads > 100 µM

The measured TGI associated with Nc1nc(-c2cccc(Cl)c2)c(-c2ccc3ncccc3n2)s1 reads > 25 µM

The measured TGI associated with Cc1nn(C(=O)Cc2ccccc2)c2c1C(c1ccc(N(C)C)cc1)SC(N)=N2 (stereo unspecified) reads > 100 µM

The measured TGI associated with CC(=O)O.[Au].c1ccc([PH+](c2ccccc2)c2ccccc2)cc1 reads 2.34 µM

The measured TGI associated with Cc1ccc(NC(=O)NCCCOc2ccc(N3C(N)=NC(N)=NC3(C)C)cc2Cl)cc1S(=O)(=O)F reads > 100 µM

The measured TGI associated with COc1ccc(C2=Nn3c(nnc(Cc4ccc(Cl)cc4)c3=O)SC2)cc1 reads > 100 µM

The measured TGI associated with O=C(Nc1ccc(Cl)cc1Cl)C(=O)C(C(=O)c1ccncc1)C1OC(=O)c2ccccc21 (stereo unspecified) reads > 100 µM

The measured TGI associated with COc1ccc(CCN2CCN(CCc3ccc(OC)cc3)CC2)cc1 reads > 100 µM

The measured TGI associated with C=C1C(=O)O[C@H]2[C@H]1CC/C(COC(=O)c1cc3ccccc3s1)=C\CC[C@@]1(C)O[C@@H]21 reads 2.45 µM

The measured TGI associated with COc1ccc2nc3cc(Cl)ccc3c(NCCN)c2c1 reads 5.39 µM

The measured TGI associated with COC(=O)CCc1cc(O)c2c(c1)C(C(=O)OC)C(c1ccc(O)c(O)c1)O2 (stereo unspecified) reads > 48.7 µM

The measured TGI associated with COc1cc(O)c2c(c1)OCC(Cc1ccc(O)cc1)C2=O (stereo unspecified) reads > 100 µM

The measured TGI associated with CCc1c(C)c(C#N)c(=S)n(C2OC(COC(C)=O)C(OC(C)=O)C(OC(C)=O)C2OC(C)=O)c1C (stereo unspecified) reads > 100 µM

The measured TGI associated with CCn1c(SCC(=O)NNC(=S)Nc2ccc(C)cc2)nc2ccccc2c1=O reads > 100 µM

The measured TGI associated with NNc1nncc2n[nH]nc12 reads > 100 µM

The measured TGI associated with O=C(/C=C/c1c(O)ccc2ccccc12)c1ccccc1 reads > 100 µM

The measured TGI associated with COC(=O)C12C3C4C1C1C2C3C41NC(=O)c1csc([C@@H](C[C@H](C(C)C)N(C)C(=O)[C@@H](NC(=O)[C@H]2CCCCN2C)C2CC2)OC(C)=O)n1 (stereo partly specified) reads > 33.3 µM

The measured TGI associated with CCOC(=O)C1(C(=O)OCC)C[C@H](C)[C@](C)(O)C1 reads > 100 µM

The measured TGI associated with COc1ccc(N2C(=O)c3cc(C)cnc3S2(=O)=O)cc1 reads > 100 µM

The measured TGI associated with Cn1cnc([N+](=O)[O-])c1[Se]c1nc(N)nc2c1ncn2C1OC(CO)C(O)C1O (stereo unspecified) reads > 100 µM

The measured TGI associated with Cc1nc2ccccc2c(=O)n1-c1ccccc1F reads > 100 µM

The measured TGI associated with O=c1[nH]c(=O)n(C2OC(CO)C(O)C(O)C2O)cc1F (stereo unspecified) reads > 100 µM

The measured TGI associated with OC/C=C(\I)CCCOCOCc1ccccc1 reads 46.1 µM

The measured TGI associated with CCCCCN(CCCCC)CC(O)c1ccc(Cl)c2ccccc12 (stereo unspecified) reads 33.1 µM

The measured TGI associated with Cc1ccccc1N=Nc1ccc(N/N=C2/CCCNC2=O)c(C)c1 reads > 100 µM

The measured TGI associated with O=c1c2cc(S(=O)(=O)O)ccc2nc(COc2ccc(Oc3ccc(Cl)cc3Cl)cc2)n1-c1ccc(Cl)cc1Oc1c(Cl)cccc1Cl reads > 100 µM
